Tested on: MCF7 breast
Test: NCI tumour cell line growth inhibition, 48 h; in the data active = GI50 below about 0.43 µM; inactive = the rest
Classes used: Y for active, N for inactive

• C[C@@H]1CCC2[C@@H](C)[C@H](OC(=O)CCC(=O)NCCNC(=O)Cc3cc(=O)oc4cc(N(C)C)ccc34)O[C@@H]3O[C@]4(C)CC[C@@H]1C23OO4 (stereo partly specified) = N
• CCOC(=O)c1cn2ncnc(Oc3ccc(NC(=O)NCCN(CC)CC)c(Cl)c3)c2c1C = N
• COc1ccc(-c2cc3nccn3c(Nc3ncccc3C(N)=O)n2)cc1OC = N
• COc1cc2c(cc1-c1c(C)noc1C)ncc1[nH]c(=O)n([C@H](C)c3ccccn3)c12 = Y
• COC(=O)C1=C2CO[C@@H]3C[C@H]4C(C)(C)CCC[C@]4(C)C(=CC1)[C@]23C = N
• COc1ccc(Cn2cc3c(c2-c2ccccc2)CCc2cncnc2-3)cc1 = N

The reported measurements were obtained from PubChem BioAssay (NCI).
